Protocol description: in vitro
Run conditions: human, hela cells, % viability
I'd appreciate it if you could supply viability at 28.5 h, 10 µM values for the items below.
One number for each entry, in %.

# compound O=C(NCC1CCN(c2ccc(F)c(F)c2)C1)c1c[nH]nc1C1CC1 (stereo not drawn) ; its viability at 28.5 h, 10 µM = 91

The reported value for O=C(Nc1ccccc1Cl)N1CCCCC1CO (stereo not drawn) in terms of viability at 28.5 h, 10 µM is 91.9

// next entry
Looking up CC(=O)Nc1ccc(S(=O)(=O)Nc2ccnc(N3CCNCC3)n2)cc1 [CBK000363C] , I found its viability at 28.5 h, 10 µM recorded as 92.5

====

Protocol description: in vitro
Run conditions: human, hela cells, % viability
Field: viability at 28.5 h, 10 µM. Provide a value for each of the compounds that follow.
Numbers only, in %.

Value of viability at 28.5 h, 10 µM reported for the compound CCCOc1ccc(-c2cn(CC(=O)NN)cn2)cc1 [CBK261790] is 106

Field viability at 28.5 h, 10 µM (entry O=C(O)c1cc(NS(=O)(=O)c2ccc3c(c2)OCCCO3)ccc1F [CBK296731] ) reads 104

compound CN(c1ncccc1C#N)C1CCN(C(=O)OCc2ccccc2)CC1 [CBK023869C] , viability at 28.5 h, 10 µM observed: 84.1

Continue with the compound presented below.
# compound CCC(=O)N1C[C@@H](N(C)C)[C@H](c2cn(C)c3ccccc23)C1 [CBK285008] ; its viability at 28.5 h, 10 µM = 91.3

====

Would you mind telling me the reported viability at 28.5 h, 10 µM of each entry?
Protocol description: in vitro
Run conditions: human, hela cells, % viability
Answers are plain numbers, in %.

Look over these answered cases.
viability at 28.5 h, 10 µM reading for COc1cccc(NC(=O)CCS(=O)(=O)c2ccccc2)c1 [CBK270150] : 91.9

Input CN1CCN(c2nc(-c3cccc4ncccc34)cnc2N)CC1 [CBK063465] . Output viability at 28.5 h, 10 µM: 107

For record CC(NC(=O)N1CCNC(=O)C1)c1ccccc1 (stereo not shown) [CBK155877] the listed viability at 28.5 h, 10 µM is 96

Alright, here's another molecule for you.
So, CN1C(=O)COc2ccccc2C/C=C/C[C@H]2NCCC[C@H]21 [CBK292156] ? Its viability at 28.5 h, 10 µM was 80.9

====

Protocol description: in vitro
Run conditions: human, hela cells, % viability
Reported endpoint: viability at 28.5 h, 10 µM (%)
One number for each entry, in %.

Recorded viability at 28.5 h, 10 µM, per entry:
// viability at 28.5 h, 10 µM value for O=C(NC(=S)Nc1cccc2ncccc12)c1ccc(N2CCOCC2)c([N+](=O)[O-])c1 [CBK267608] : 87.8

Notebook: Cc1sc2ncn(CC3(O)CCCNC3)c(=O)c2c1-c1ccc(F)cc1 (stereo not drawn) [CBK307346] , viability at 28.5 h, 10 µM read as 96

GET /value?item= COc1ccc(C(=O)N2CCC3(CCN(C(=O)CCSC)C3)C2)cc1OC (stereo not drawn) [CBK131786] &field=viability at 28.5 h, 10 µM returns 105

Measured viability at 28.5 h, 10 µM, CCOc1ccc(S(=O)(=O)N(C)CC(=O)O)cc1 [CBK270032] : 90.4

Form: compound = CC1CCn2c3c(c4cccc1c42)CCNCC3 (stereo not drawn) [CBK018012C] ; viability at 28.5 h, 10 µM = 97.4

// C=CCn1c(COc2cccc(Cl)c2)nnc1SCC(=O)O [CBK269389] : viability at 28.5 h, 10 µM value = 90.2

I would be grateful if you could provide viability at 28.5 h, 10 µM for each of the following entries.
1. CCCCN(C(C)=O)c1c(CC)nc2ccc(C(=O)NCCCn3ccnc3)cn12 [CBK145759]
2. CN1N=C(c2ccc(N3CCOCC3)c(F)c2)CC1c1cnn(C)c1 (stereo not drawn) [CBK305726]
3. O=C(Nc1ccc(S(=O)(=O)N2CCOCC2)cc1)c1cc(-c2ccccc2)nc2ccccc12 [CBK264790]

A.
1. 96.1
2. 87.6
3. 103

Quick batch: viability at 28.5 h, 10 µM for everything below.
1. CCN1CCN(C(=O)c2cccc(N(C)C)c2)C(Cc2ccc(-c3ccncc3)cc2)C1=O (stereo not drawn) [CBK285813]
2. Cc1nc(SCC(=O)NC(C)c2cccnc2)oc1C (stereo not drawn) [CBK282198]
3. N#CCCN(C(=O)NCCCN1CCCC1=O)C1CCCCC1 [CBK156379]
4. Cn1cc(C(=O)NC(Cc2ccsc2)c2cccnc2)cn1 (stereo not drawn) [CBK285118]
5. COc1ccc(C(=O)NC(NC(=S)Nc2cccc3cccnc23)C(Cl)(Cl)Cl)cc1 (stereo not drawn) [CBK261028]
6. Cc1cc(C(=O)Nc2ccc(S(=O)(=O)N3CC(C)OC(C)C3)cc2)c2ccccc2n1 (stereo not drawn) [CBK295170]

A.
[101, 93.2, 85.5, 99.9, 94.6, 87.4]

Below are some compounds; for each one, tell me its viability at 28.5 h, 10 µM.
1. O=C1C2C3C=CC(C3)C2C(=O)N1CCN1CCN(S(=O)(=O)/C=C/c2ccccc2)CC1 (stereo not drawn) [CBK263663]
2. O=c1ccc2cc(S(=O)(=O)Nc3ncc(Br)c4cccnc34)ccc2o1 [CBK073887]
3. CCc1nn(CC(=O)N2CCCCC2C)c(=O)c2cc3occc3n12 (stereo not drawn) [CBK283676]

A.
[88.4, 94, 67.5]
